Test system: CCRF-CEM leukemia
Assay: NCI tumour cell line growth inhibition, 48 h
Entries and their TGI

Short answer for CC1=C2C(=O)C3[C@@H](CCC4=CC(=O)CC[C@@]43C)C2CC[C@]12O[C@@H]1C[C@H](C)CN[C@H]1[C@H]2C (stereo partly drawn) : TGI was 40.1 µM

// field: TGI; key: NC(=O)c1nnn(Cc2cc(Cl)c(C(=O)c3ccc(Cl)cc3)c(Cl)c2)c1N ; value = > 100 µM

----------
System: SNB-19 CNS
Assay: NCI tumour cell line growth inhibition, 48 h
property: GI50

Known GI50 results, listed for orientation:
1) CN(C)c1ccc(/C=C(\C#N)c2cc3ccccc3n2C)cc1; 0.357 µM
2) CCCN(CCC)c1ccc(C=O)cc1; 62 µM
3) Cc1ccc(Cl)cc1Nc1nc(C(F)(F)F)ccc1C(=O)N/N=C/c1c(Cl)cccc1Cl; 1.75 µM

// COc1ccc(Nc2c3c4c(cccc4[nH]c2=O)C(=O)c2ccccc2-3)cc1 : GI50 value = 0.684 µM

CCCCCCCCCCCCOC1C(CNC(=O)C2OC3OC(C)(C)OC3C2NC(=O)CN2CCN(c3ccccn3)CC2)OC2OC(C)(C)OC21 (centres undefined) yielded GI50 of 2.96 µM

The compound COc1ccc2nc3cccc([N+](=O)[O-])c3c(NCCN(CCO)CCO)c2c1 showed GI50 equal to 0.129 µM
